target: Amyloid-beta precursor protein (Homo sapiens) (UniProt P05067); assay: Inhibition of amyloid beta (unknown origin) fibril formation at 10 uM by thioflavin T fluorescent dye assay
Sequence (P05067 whole entry): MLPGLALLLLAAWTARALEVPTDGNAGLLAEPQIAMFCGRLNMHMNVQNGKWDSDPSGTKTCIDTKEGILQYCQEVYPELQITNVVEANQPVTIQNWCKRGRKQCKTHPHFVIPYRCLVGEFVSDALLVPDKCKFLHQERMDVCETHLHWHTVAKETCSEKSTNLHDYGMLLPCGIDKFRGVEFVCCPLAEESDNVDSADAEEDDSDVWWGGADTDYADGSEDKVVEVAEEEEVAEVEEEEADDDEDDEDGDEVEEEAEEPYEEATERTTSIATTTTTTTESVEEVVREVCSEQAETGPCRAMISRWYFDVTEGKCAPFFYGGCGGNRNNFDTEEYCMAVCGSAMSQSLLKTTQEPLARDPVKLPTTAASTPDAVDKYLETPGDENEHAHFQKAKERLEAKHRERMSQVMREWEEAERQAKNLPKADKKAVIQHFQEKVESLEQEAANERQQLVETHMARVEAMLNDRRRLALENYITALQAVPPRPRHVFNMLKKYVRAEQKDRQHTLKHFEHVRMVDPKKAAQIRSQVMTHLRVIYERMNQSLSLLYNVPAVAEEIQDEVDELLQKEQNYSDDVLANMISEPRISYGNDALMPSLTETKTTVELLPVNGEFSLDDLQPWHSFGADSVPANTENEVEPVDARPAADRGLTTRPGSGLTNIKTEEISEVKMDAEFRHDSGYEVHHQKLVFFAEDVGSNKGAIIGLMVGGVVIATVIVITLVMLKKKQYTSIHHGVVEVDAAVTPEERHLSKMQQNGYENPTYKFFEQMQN
Outcome Measure: inhibition
Record the result as a number with its unit.

Some compounds with recorded inhibition:
• COc1ccc(-c2cc3cc(/C=C/C(=O)O)cc(OC)c3o2)cc1N(C)C = 11.7%
• COc1cc(/C=C/C(=O)O)cc2cc(-c3ccccc3F)oc12 = 7%
• COc1cc(/C=C/C(=O)O)cc2cc(-c3ccc(O)cc3)oc12 = 14.8%

Lab note: measured inhibition of COc1ccccc1-c1cc2cc(/C=C/C(=O)O)cc(O)c2o1 was 0%

Lab note: measured inhibition of COc1ccc(-c2cc3cc(/C=C/C(=O)O)cc(O)c3o2)cc1O was 43.3%

Lab note: measured inhibition of COc1cc(/C=C/C(=O)O)cc2cc(-c3cccc(O)c3)oc12 was 0%

Lab note: measured inhibition of CN(C)c1ccc(-c2cc3cc(/C=C/C(=O)O)cc(O)c3o2)cc1F was 49.8%

----------
target: Amyloid-beta precursor protein (Homo sapiens) (UniProt P05067); assay: Inhibition of amyloid beta (unknown origin) fibril formation at 10 uM by thioflavin T fluorescent dye assay
Class (by inhibition) -- bin 1 = under 10%, bin 2 = from 10% up to 30%, bin 3 = 30% and over

Check out these entries, answers already filled in.
* COc1ccc(-c2cc3cc(/C=C/C(=O)O)cc(O)c3o2)cc1N(C)C | bin 3
* COc1cc(/C=C/C(=O)O)cc2cc(-c3ccccc3N(C)C)oc12 | bin 1
* COc1cccc(-c2cc3cc(/C=C/C(=O)O)cc(O)c3o2)c1 | bin 1
* COc1cc(/C=C/C(=O)O)cc2cc(-c3ccccc3)oc12 | bin 1
* COc1ccccc1-c1cc2cc(/C=C/C(=O)O)cc(OC)c2o1 | bin 1
* O=C(O)/C=C/c1cc(O)c2oc(-c3ccccc3)cc2c1 | bin 2
* COc1cc(-c2cc3cc(/C=C/C(=O)O)cc(OC)c3o2)ccc1N(C)C | bin 3
* COc1cc(/C=C/C(=O)O)cc2cc(-c3cccc(N(C)C)c3)oc12 | bin 3
* COc1cc(/C=C/C(=O)O)ccc1O | bin 3
* COc1cc(-c2cc3cc(/C=C/C(=O)O)cc(O)c3o2)ccc1N(C)C | bin 3

Could you tell me which band O=C(O)/C=C/c1cc(O)c2oc(-c3ccc(O)cc3)cc2c1 belongs to?
bin 2

----------
biological target: Amyloid-beta precursor protein (Homo sapiens) (UniProt P05067); assay: Inhibition of amyloid beta (unknown origin) fibril formation at 10 uM by thioflavin T fluorescent dye assay
Measured inhibition accompanies every entry in the list below.
Record the result as a number with its unit.

Some compounds with recorded inhibition:
• COc1cc(-c2cc3cc(/C=C/C(=O)O)cc(O)c3o2)ccc1O = 42.6%
• COc1cc(/C=C/C(=O)O)cc2cc(-c3ccccc3O)oc12 = 18.1%
• CN(C)c1ccc(-c2cc3cc(/C=C/C(=O)O)cc(O)c3o2)cc1 = 70.6%
• COc1cc(/C=C/C(=O)O)cc2cc(-c3cccc(F)c3)oc12 = 0.4%
• O=C(O)/C=C/c1cc(O)c2oc(-c3ccc(F)cc3)cc2c1 = 26.7%

Lab note: measured inhibition of CN(C)c1ccccc1-c1cc2cc(/C=C/C(=O)O)cc(O)c2o1 was 8.1%

Lab note: measured inhibition of COc1cc(/C=C/C(=O)O)cc2cc(-c3ccc(F)cc3)oc12 was 2.7%

Lab note: measured inhibition of COc1ccc(-c2cc3cc(/C=C/C(=O)O)cc(OC)c3o2)cc1O was 0%

Lab note: measured inhibition of CN(C)c1cccc(-c2cc3cc(/C=C/C(=O)O)cc(O)c3o2)c1 was 33.3%

Lab note: measured inhibition of COc1cc(/C=C/C(=O)O)cc2cc(-c3ccc(N(C)C)cc3)oc12 was 72.6%

Lab note: measured inhibition of O=C(O)/C=C/c1cc(O)c2oc(-c3ccccc3O)cc2c1 was 28.3%

Lab note: measured inhibition of COc1cc(-c2cc3cc(/C=C/C(=O)O)cc(OC)c3o2)ccc1O was 28.4%

Lab note: measured inhibition of O=C(O)/C=C/c1cc(O)c2oc(-c3cccc(O)c3)cc2c1 was 0%

Lab note: measured inhibition of O=C(O)/C=C/c1cc(O)c2oc(-c3cccc(F)c3)cc2c1 was 14.3%

Lab note: measured inhibition of COc1cc(/C=C/C(=O)O)cc2cc(-c3ccc(F)c(N(C)C)c3)oc12 was 9.9%

Lab note: measured inhibition of COc1ccc(-c2cc3cc(/C=C/C(=O)O)cc(O)c3o2)cc1 was 34.2%
